test system: lipoxygenase; experiment: lipoxygenase inhibition in vitro; assay type: biochemical; conditions: concentration 0.0001M, 100 µM
measured endpoint: % inhibition of lipoxygenase (%)

// below: answered compounds
compound	% inhibition of lipoxygenase / %
CCOC(=O)C(=CNc1ccc2c(c1)c(C)cc1nnc(-c3ccc(C(C)(C)C)cc3)n12)C(=O)OCC [D]	98
CCOC(=O)C(=CNc1ccc2c(c1)c(C)cc1nnc(-c3ccccc3)n12)C(=O)OCC [A]	100

I = CCOC(=O)C(=CNc1ccc2c(c1)c(C)cc1nnc(-c3ccc(C)cc3)n12)C(=O)OCC [B]
II = CCOC(=O)C(=CNc1ccc(-c2nnc3cc(C)c4ccccc4n23)cc1)C(=O)OCC [E]
*Q* Smaller % inhibition of lipoxygenase value, I vs II ? # answer = label of selected item
*A* II
(II: 50%, I: 100%)

Origin of values: patent EP0174833A2
